ASSAY_TARGET: mOAZ1 (Mus musculus, UniProt P54369)
Construct: gene Oaz1; full-length mouse antizyme 1 (+1 frameshift product); expressed in E. coli Rosetta (DE3) from pET-15b-2c-His-mAZ (XhoI site)
Sequence (P54369 2-227): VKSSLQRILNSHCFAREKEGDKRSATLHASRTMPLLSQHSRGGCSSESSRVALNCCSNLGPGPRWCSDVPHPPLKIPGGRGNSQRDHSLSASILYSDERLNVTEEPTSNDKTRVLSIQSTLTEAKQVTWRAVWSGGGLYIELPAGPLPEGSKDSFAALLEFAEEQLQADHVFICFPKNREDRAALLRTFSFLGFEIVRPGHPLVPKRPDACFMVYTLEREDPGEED
PROCEDURE_SUMMARY: isothermal titration calorimetry
Type: binding
DETAILS: read-out: Kd ^c
RECORDED_ENDPOINT: pKd
Scale: pKd equals -log10([C]), with [C] in mol/L.

Data request: What pKd value was documented for this compound, NCCCNCCCCNCCCN [Spm] ?
Data returned: 6.43
